# Tested on: AGS
# run-description: Anti-proliferative 2D CTG assay, AGS
# Assay type: cell-based
# details: Homo sapiens, AGS, 96 h, AGS cells, 4 days incubation, read-out: AGS cell IC50
Kindly state pIC50 for each of the entries shown.
Answers are plain numbers, as −log10 of the molar value.

Example entries begin here.
C#Cc1c(F)ccc2cc(O)cc(-c3ncc4c(N5CC6CCC(C(C)(C)O)(C5)N6)nc(OCC56CC(=C)CN5CC(=C)C6)nc4c3F)c12 (stereo not drawn) :: 6.60
C#Cc1c(F)ccc2cc(O)cc(-c3ncc4c(N5C[C@@H]6CC[C@](C7CC7)(C5)N6)nc(OCC56CC(=C)CN5CC(=C)C6)nc4c3F)c12 :: 6.98
[2H]C([2H])([2H])C([2H])([2H])[C@@]12CC[C@@H](CN(c3nc(OC[C@@]45CCCN4C/C(=C\F)C5)nc4c(F)c(-c5cc(N)cc6ccc(F)c(C#C)c56)ncc34)C1)N2 :: 8.03
[2H]C([2H])([2H])C([2H])([2H])[C@@]12CC[C@@H](CN(c3nc(OC[C@@]45CCCN4C/C(=C\F)C5)nc4c(F)c(-c5cc(O)cc6ccc(F)c(C#C)c56)ncc34)C1)N2 :: 8.85
C#Cc1c(F)ccc2cc(O)cc(-c3ncc4c(N5C[C@@H]6CC[C@](CC)(C5)N6)nc(OC[C@@]56CCCN5CC(=C)C6)nc4c3F)c12 :: 8.51

Next compound, please.
Determine its reported pIC50: C#Cc1c(F)ccc2cc(O)cc(-c3ncc4c(N5CC6CCC(C5)N6)nc(OC[C@@]56CCCN5C[C@H](F)C6)nc4c3F)c12 [Positive Compound 1, reference compound] 8.38

###

# run-description: in vivo
# details: male, ICR, mouse, po, 10 mg/kg
measured-parameter: bioavailability (%)
One number for each entry, in %.

Determine its reported bioavailability: C#Cc1c(F)ccc2cc(N)cc(-c3ncc4c(N5C[C@H]6CC[C@@H](C5)N6)nc(OC[C@@]56CCCN5C/C(=C\F)C6)nc4c3F)c12 [Reference Compound 4] 6.5

###

Kindly state IC50 for each of the entries shown.
# Tested on: AGS
# run-description: Anti-proliferative 2D CTG assay, AGS
# Format: cell-based
# details: AGS cells, 4 days incubation, read-out: AGS cell IC50
One number for each entry, in nM.

Look up IC50 for the entries below, preserving their order.
1. C#Cc1c(F)ccc2cc(O)cc(-c3ncc4c(N5C[C@@H]6CC[C@](CC)(C5)N6)nc(OC[C@@]56CCCN5C/C(=C\F)C6)nc4c3F)c12 [Example 55]
2. C#Cc1c(F)ccc2cc(O)cc(-c3ncc4c(N5C[C@@H]6CC[C@](CC)(C5)N6)nc(OC[C@@]56CCCN5C/C(=C\F)C6)nc4c3F)c12 [Example 56]
3. [2H]C([2H])([2H])OC[C@@]12CC[C@@H](CN(c3nc(OC[C@@]45CCCN4C/C(=C\F)C5)nc4c(F)c(-c5cc(O)cc6ccc(F)c(C#C)c56)ncc34)C1)N2 [Example 61]
4. [2H]C([2H])([2H])OC[C@@]12CC[C@@H](CN(c3nc(OC[C@@]45CCCN4C/C(=C\F)C5)nc4c(F)c(-c5cc(O)cc6ccc(F)c(C#C)c56)ncc34)C1)N2 [Example 62]

[1.3, 0.6, 3.4, 1.5]

###

# run-description: Pharmacokinetic experiment in mice (single PO or IV administration)
# details: male, ICR, mouse, plasma, po, 10 mg/kg
Returns one of t or f; t when AUC is >= 500 ng·h/mL.

Here's what some known entries look like.
C#Cc1c(F)ccc2cc(O)cc(-c3ncc4c(N5C[C@H]6CC[C@@H](C5)N6)nc(OC[C@@]56CCCN5C/C(=C/F)C6)nc4c3F)c12 [Reference Compound 2, reference compound] :: f
[2H]C([2H])([2H])C([2H])([2H])[C@@]12CC[C@@H](CN(c3nc(OC[C@@]45CCCN4C/C(=C\F)C5)nc4c(F)c(-c5ccc(F)c6sc(N)c(C#N)c56)c(Cl)cc34)C1)N2 (single isomer, unassigned) [Example 361] :: f
[2H]C([2H])([2H])C([2H])([2H])[C@@]12CC[C@@H](CN(c3nc(OC[C@@]45CCCN4C/C(=C\F)C5)nc4c(F)c(-c5cc(N)cc6ccc(F)c(C#C)c56)ncc34)C1)N2 [Example 137] :: t
C#Cc1c(F)ccc2cc(O)cc(-c3ncc4c(N5C[C@H]6CC[C@@H](C5)N6)nc(OC[C@@]56CCCN5C/C(=C\F)C6)nc4c3F)c12 [Reference Compound 1, reference compound] :: f

AUC >= 500 ng·h/mL for [2H]C([2H])([2H])[C@@]12CC[C@@H](CN(c3nc(OC[C@@]45CCCN4C/C(=C\F)C5)nc4c(F)c(-c5cc(N)cc6ccc(F)c(C#C)c56)ncc34)C1)N2 [Example 355] ? f

###

Kindly state pIC50 for each of the entries shown.
# System: AsPC-1
# run-description: Anti-proliferative 2D CTG assay, AsPC-1
# Format: cell-based
# details: Homo sapiens, ASPC1, 96 h, AsPC-1 cells, 4 days incubation, read-out: AsPC-1 cell IC50
Give bare numbers, as −log10 of the molar value.

C#Cc1c(F)ccc2cc(O)cc(-c3ncc4c(N5C[C@@H]6CC[C@](CC)(C5)N6)nc(OC[C@@]56CCCN5CC(=C)C6)nc4c3F)c12 [Example 20] :: 7.76
C#Cc1c(F)ccc2cc(O)cc(-c3ncc4c(N5C[C@@H]6CC[C@](COC)(C5)N6)nc(OC[C@@]56CCCN5C/C(=C\F)C6)nc4c3F)c12 [Example 58] :: 7.66

Next compound, please.
Determine its reported pIC50: C#Cc1c(F)ccc2cc(O)cc(-c3ncc4c(N5C[C@@H]6CC[C@](C7CC7)(C5)N6)nc(OC[C@@]56CCCN5C/C(=C/F)C6)nc4c3F)c12 [Example 90] 6.99

###

Kindly state IC50 for each of the entries shown.
# target-or-system: KRAS^G12D/cRAF (Homo sapiens, UniProt P01116, G12D)
# Sequence (P01116 1-188 isoform P01116-2 G12D): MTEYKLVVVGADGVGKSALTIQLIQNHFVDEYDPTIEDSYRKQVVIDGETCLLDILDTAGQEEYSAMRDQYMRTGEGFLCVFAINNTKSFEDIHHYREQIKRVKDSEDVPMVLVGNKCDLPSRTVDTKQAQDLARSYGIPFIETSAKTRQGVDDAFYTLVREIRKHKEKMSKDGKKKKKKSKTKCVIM
# run-description: KRAS G12D/cRAF binding test (Alphalisa)
# details: His-tagged KRAS G12D with GMPPNP, GST-tagged cRAF
One number for each entry, in nM.

[2H]C([2H])([2H])[C@@]12CC[C@@H](CN(c3nc(OC[C@@]45CCCN4C/C(=C\F)C5)nc4c(F)c(-c5cc(O)cc6ccc(F)c(C#C)c56)c(F)cc34)C1)N2 [Example 229] :: 20.6
C#Cc1c(F)ccc2cc(O)cc(-c3ncc4c(N5C[C@@H]6CC[C@](CC)(C5)N6)nc(OC[C@@]56CCCN5C/C(=C/F)C6)nc4c3F)c12 [Example 80] :: 6.2
C#Cc1c(F)ccc2cc(O)cc(-c3ncc4c(N5C[C@@H]6CC[C@](C7CC7)(C5)N6)nc(OC[C@@]56CCCN5C/C(=C\F)C6)nc4c3F)c12 [Example 68] :: 40.1
[2H]C([2H])([2H])Oc1nc(-c2cc(O)cc3ccc(F)c(C#C)c23)c(F)c2nc(OC[C@@]34CCCN3C/C(=C\F)C4)nc(N3CC4CCC(CC)(C3)N4)c12 (some centres unmarked) [Example 204] :: 3.9

Determine its reported IC50: C#Cc1c(F)ccc2cc(O)cc(-c3ncc4c(N5C[C@@H]6CC[C@](C7CC7)(C5)N6)nc(OC[C@@]56CCCN5C/C(=C/F)C6)nc4c3F)c12 [Example 90] 40.7

###

# run-description: in vivo
# details: male, ICR, mouse, iv, 2 mg/kg
measured-parameter: half-life (h)
Answers are plain numbers, in h.

Determine its reported half-life: C#Cc1c(F)ccc2cc(N)cc(-c3ncc4c(N5C[C@H]6CC[C@@H](C5)N6)nc(OC[C@@]56CCCN5C/C(=C\F)C6)nc4c3F)c12 [Reference Compound 4] 8.4

###

# Tested on: HPAC
# run-description: Anti-proliferative 2D CTG assay, HPAC
# Format: cell-based
# details: Homo sapiens, 96 h, HPAC cells, 4 days incubation, read-out: HPAC cell IC50
Kindly state log10 IC50 for each of the entries shown.
All values: base-10 log of IC50 in µM.

[2H]C([2H])([2H])C([2H])([2H])[C@@]12CC[C@@H](CN(c3nc(OC[C@@]45CCCN4C/C(=C\F)C5)nc4c(F)c(-c5cc(N)cc6ccc(F)c(C#C)c56)ncc34)C1)N2 :: -1.93
[2H]C([2H])([2H])C([2H])([2H])[C@@]12CC[C@@H](CN(c3nc(OC[C@@]45CCCN4C/C(=C\F)C5)nc4c(F)c(-c5cccc6sc(N)c(C#N)c56)c(Cl)cc34)C1)N2 :: -1.21
[2H]C([2H])([2H])C([2H])([2H])[C@@]12CC[C@@H](CN(c3nc(OC[C@@]45CCCN4CC(=C(F)F)C5)nc4c(F)c(-c5cc(O)cc6ccc(F)c(C#C)c56)ncc34)C1)N2 :: -1.64
C#Cc1c(F)ccc2cc(O)cc(-c3ncc4c(N5C[C@@H]6CC[C@](C7CC7)(C5)N6)nc(OC[C@@]56CCCN5C/C(=C\F)C6)nc4c3F)c12 :: -1.08

Determine its reported log10 IC50: C#Cc1c(F)ccc2cc(O)cc(-c3ncc4c(N5C[C@@H]6CC[C@](C7CC7)(C5)N6)nc(OC[C@@]56CCCN5CC(=C(F)F)C6)nc4c3F)c12 -0.88
